Data credit: ChEMBL document CHEMBL3137667

conditionContext: human, serum
observationType: Hepatotoxicity (acute)

> print(dat)
                                   molecule         observationtype  obsvalue
1  CCN1CCN(C(=O)N[C@@H](C(=O)N[C@]2(OC)C(=O)N3C(C(=O)O)=C(CSc4nnnn4C)CS[C@@H]32)[C@H](C)O)C(=O)C1=O  Hepatotoxicity (acute)         0
2  CCCCC(C)(C)[C@H](O)/C=C/[C@H]1[C@H](C)CC(=O)[C@@H]1C/C=C\CCCC(=O)O  Hepatotoxicity (acute)         0
3  C=CC1=C(C(=O)O)N2C(=O)[C@@H](NC(=O)/C(=N\OCC(=O)O)c3csc(N)n3)[C@H]2SC1  Hepatotoxicity (acute)         1
4  CC(=O)NCCCCCCNC(C)=O [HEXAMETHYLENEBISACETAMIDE]  Hepatotoxicity (acute)         1
5  Cc1onc(-c2ccccc2)c1C(=O)N[C@@H]1C(=O)N2[C@@H]1SC(C)(C)[C@@H]2C(=O)O  Hepatotoxicity (acute)        17
6            O=C1c2ccccc2C(=O)C1c1ccc(F)cc1  Hepatotoxicity (acute)         7
7  O=C(NCCN1CCOCC1)c1ccc(Cl)cc1 [MOCLOBEMIDE]  Hepatotoxicity (acute)         1
8  CN1CCC[C@@H]1CCO[C@](C)(c1ccccc1)c1ccc(Cl)cc1  Hepatotoxicity (acute)         0

----------
protocolDetails: Comments (NB not yet translated). [column 'COMMENTAIRES' in source]
conditionContext: human
observationType: Hepatotoxicity (comment)

> print(dat)
               substance  obsvalue
1    GONADOTROPIN, SERUM       HNF
2  GEMTUZUMAB OZOGAMICIN       MVO

----------
conditionContext: human

molecule	Hepatotoxicity (choleostasis)
CC(=O)[C@]1(O)Cc2c(O)c3c(c(O)c2[C@@H](O[C@H]2C[C@H](N)[C@H](O)[C@H](C)O2)C1)C(=O)c1ccccc1C3=O	0
Cc1ncc(CNC(=O)N(CCCl)N=O)c(N)n1	0
CC(C)=CCN1CC[C@]2(C)c3cc(O)ccc3C[C@H]1[C@H]2C [(+)-PENTAZOCINE]	0
CO[C@@H]1[C@H](OC(=O)/C=C/C=C/C=C/C=C/C(=O)O)CC[C@]2(CO2)[C@H]1[C@@]1(C)O[C@@H]1CC=C(C)C	0
Cc1ccc(C(=O)Nc2ccc(S(=O)(=O)O)c3cc(S(=O)(=O)O)cc(S(=O)(=O)O)c23)cc1NC(=O)c1cccc(NC(=O)Nc2cccc(C(=O)Nc3cc(C(=O)Nc4ccc(S(=O)(=O)O)c5cc(S(=O)(=O)O)cc(S(=O)(=O)O)c45)ccc3C)c2)c1	0
Cc1nc(C)c2c(n1)N(Cc1ccc(-c3ccccc3-c3nnn[nH]3)cc1)C(=O)CC2	0
CCc1c(C)[nH]c2c1C(=O)C(CN1CCOCC1)CC2 (stereo not given)	1
NC(=O)c1cc[n+](CC2=C(C(=O)O)N3C(=O)[C@@H](NC(=O)[C@@H](c4ccccc4)S(=O)(=O)[O-])[C@H]3SC2)cc1	0
CC(C)c1nc(N(C)S(C)(=O)=O)nc(-c2ccc(F)cc2)c1/C=C/[C@@H](O)C[C@@H](O)CC(=O)O	0
CC(C)[C@@H]1NC(=O)[C@H](CCCCN)NC(=O)[C@@H](Cc2c[nH]c3ccccc23)NC(=O)[C@H](Cc2ccc(O)cc2)NC(=O)[C@@H](NC(=O)[C@H](N)Cc2ccc3ccccc3c2)CSSC[C@@H](C(=O)N[C@H](C(N)=O)[C@@H](C)O)NC1=O [LANREOTIDE]	0
CCN(CC)C(=O)N1CCN(C)CC1	0
Cc1c(C)c2c(c(C)c1O)CCC(C)(COc1ccc(CC3SC(=O)NC3=O)cc1)O2 (stereo not given)	4
NCCS	0
O=C(Cn1c(=O)sc2ccc(Cl)cc21)N1CCN(CCO)CC1 [TIARAMIDE]	1
CC(=O)Nc1c(I)c(NC(C)=O)c(I)c(C(=O)O)c1I	0
O=C1C(O)=C([C@H]2CC[C@H](c3ccc(Cl)cc3)CC2)C(=O)c2ccccc21	0
Cc1[nH]c(=O)c(C#N)cc1-c1ccncc1	0
COC(=O)Nc1nc2ccc(C(=O)c3ccccc3)cc2[nH]1	0
COc1ccc(-c2noc(CC(=O)O)c2-c2ccc(OC)cc2)cc1	0
CC[C@H](C)C(=O)O[C@H]1C[C@H](O)C=C2C=C[C@H](C)[C@H](CC[C@@H](O)C[C@@H](O)CC(=O)O)[C@H]21	3
COc1ccc(-n2nc(CCC(=O)N(C)O)cc2-c2ccc(Cl)cc2)cc1	0
CC(C)Cc1ccc(C(C)C(=O)O)cc1 (stereo not given)	6
NCC1CC(=O)N(Cc2ccccc2)C1 (stereo not given)	0
CC[C@H]1OC(=O)[C@H](C)[C@@H](O[C@H]2C[C@@](C)(OC)[C@@H](O)[C@H](C)O2)[C@H](C)[C@@H](O[C@@H]2O[C@H](C)C[C@H](N(C)C)[C@H]2O)[C@](C)(OC)C[C@@H](C)C(=O)[C@H](C)[C@@H](O)[C@]1(C)O	6
CC(=O)OCC(CCn1cnc2cnc(N)nc21)COC(C)=O	0
CC1(C)S[C@@H]2[C@H](NC(=O)[C@H](C(=O)O)c3ccsc3)C(=O)N2[C@H]1C(=O)O	0
CNC(=C[N+](=O)[O-])NCCSCc1ccc(CN(C)C)o1	15
CO[C@]12CC[C@@]3(C[C@@H]1[C@](C)(O)C(C)(C)C)[C@H]1Cc4ccc(O)c5c4[C@@]3(CCN1CC1CC1)[C@H]2O5	0
C[C@H]1C[C@H]2[C@@H]3CCC4=CC(=O)C=C[C@]4(C)[C@@]3(Cl)[C@@H](O)C[C@]2(C)[C@@]1(O)C(=O)CO	0
Cc1cn([C@H]2C[C@H](F)[C@@H](CO)O2)c(=O)[nH]c1=O	0

----------
Listing of recorded Hepatotoxicity (benign tumour) by entry.
conditionContext: human

molecule	Hepatotoxicity (benign tumour)
CCOC(=O)[C@H](CCc1ccccc1)N[C@@H](C)C(=O)N(CC(=O)O)C1Cc2ccccc2C1	0
CCc1oc2ccccc2c1C(=O)c1cc(Br)c(O)c(Br)c1 [BENZBROMARONE]	0
CCCCC1C(=O)N(c2ccccc2)N(c2ccc(O)cc2)C1=O (stereo unspecified) [OXYPHENBUTAZONE ANHYDROUS]	0
[H]/N=C(\N/C(=N/[H])Nc1ccc(Cl)cc1)NC(C)C [PROGUANIL]	0
CO[C@H](C(=O)[C@@H](O)[C@@H](C)O)[C@@H]1Cc2cc3cc(O[C@H]4C[C@@H](O[C@H]5C[C@@H](O)[C@H](O)[C@@H](C)O5)[C@H](O)[C@@H](C)O4)c(C)c(O)c3c(O)c2C(=O)[C@H]1O[C@H]1C[C@@H](O[C@H]2C[C@@H](O[C@H]3C[C@](C)(O)[C@H](O)[C@@H](C)O3)[C@@H](O)[C@@H](C)O2)[C@H](O)[C@@H](C)O1 [PLICAMYCIN]	0
Cc1cc2c(cc1CC(=O)c1sccc1S(=O)(=O)Nc1onc(C)c1Cl)OCO2 [SITAXENTAN]	0

----------
protocolDetails: Highest frequency of acute liver toxicity observed during clinical trials, expressed as a percentage. [column '% AIGUE' in source]
conditionContext: human
observationType: Hepatotoxicity (acute)

molecule	obsValue
CCCCOCC(CN1C(=O)NC(=O)C(CC)(c2ccccc2)C1=O)OC(N)=O (stereo not given) [FEBARBAMATE]	0%
OCCN1CCN(CCCN2c3ccccc3C=Cc3ccccc32)CC1	0%
CCCc1nn(C)c2c(=O)[nH]c(-c3cc(S(=O)(=O)N4CCN(C)CC4)ccc3OCC)nc12	0%
CO[C@@]1(NC(=O)C(C(=O)[O-])c2ccc(O)cc2)C(=O)N2C(C(=O)[O-])=C(CSc3nnnn3C)CO[C@@H]21.[Na+].[Na+] (stereo not given in full) [MOXALACTAM DISODIUM]	3.3%
NC(=O)c1cc[n+](CC2=C(C(=O)O)N3C(=O)[C@@H](NC(=O)[C@@H](c4ccccc4)S(=O)(=O)[O-])[C@H]3SC2)cc1	0%
CN1CCN(CCCN2c3ccccc3Sc3ccc(C(F)(F)F)cc32)CC1	0%
CC(=O)[C@]1(O)Cc2c(O)c3c(c(O)c2[C@@H](O[C@H]2C[C@H](N)[C@H](O)[C@H](C)O2)C1)C(=O)c1ccccc1C3=O	0%
CC(C)C[C@H]1C(=O)N2CCC[C@H]2[C@]2(O)O[C@](NC(=O)[C@@H]3C=C4c5cccc6[nH]c(Br)c(c56)C[C@H]4N(C)C3)(C(C)C)C(=O)N12	0%
O=C(O)/C=C/C(=O)O	0%
CCc1c(C)[nH]c2c1C(=O)C(CN1CCOCC1)CC2 (stereo not given)	0%
Oc1ccc2[nH]cc(CCCCN3CC=C(c4ccccc4)CC3)c2c1	0%
OC(c1cc(C(F)(F)F)nc2c(C(F)(F)F)cccc12)C1CCCCN1 (stereo not given)	0%
CC[C@H]1OC(=O)[C@H](C)[C@@H](O[C@H]2C[C@@](C)(OC)[C@@H](O)[C@H](C)O2)[C@H](C)[C@@H](O[C@@H]2O[C@H](C)C[C@H](N(C)C)[C@H]2O)[C@](C)(O)C[C@@H](C)CN(C)[C@H](C)[C@@H](O)[C@]1(C)O	0%
NCC1CC(=O)N(Cc2ccccc2)C1 (stereo not given)	0%
COCCOC(=O)C1=C(C)NC(C)=C(C(=O)OC(C)C)C1c1cccc([N+](=O)[O-])c1 (stereo not given)	0.7%
CC[C@H]1OC(=O)[C@H](C)[C@@H](O[C@H]2C[C@@](C)(OC)[C@@H](O)[C@H](C)O2)[C@H](C)[C@@H](O[C@@H]2O[C@H](C)C[C@H](N(C)C)[C@H]2O)[C@](C)(O)C[C@@H](C)/C(=N\OCOCCOC)[C@H](C)[C@@H](O)[C@]1(C)O	0%
Cc1cc2c(C(C)C)c(O)c(O)c(C=O)c2c(O)c1-c1c(C)cc2c(C(C)C)c(O)c(O)c(C=O)c2c1O	0%
CCC(Cc1cnc2nc(N)nc(N)c2n1)c1ccc(C(=O)N[C@@H](CCC(=O)O)C(=O)O)cc1 (stereo not given in full) [EDATREXATE]	3.2%
CO[C@@]1(NC(=O)CSC(F)F)C(=O)N2C(C(=O)O)=C(CSc3nnnn3CCO)CO[C@@H]21	0%
C[C@]12C=CC(=O)C=C1CC[C@@H]1[C@@H]2[C@@H](O)C[C@@]2(C)[C@H]1CC[C@]2(O)C(=O)CO	0%
CCN(CC)CCN1C(=O)CN=C(c2ccccc2F)c2cc(Cl)ccc21	0%
CN1c2ccccc2C(NCCCCCCC(=O)O)c2ccc(Cl)cc2S1(=O)=O (stereo not given)	0%
CCC1(c2ccc(N)cc2)CCC(=O)NC1=O (stereo not given) [AMINOGLUTETHIMIDE]	0%
CC1(C)S[C@@H]2[C@H](NC(=O)[C@H](NC(=O)N3CCNC3=O)c3ccccc3)C(=O)N2[C@H]1C(=O)O	0%
CO[C@@H]1[C@H](OC(=O)/C=C/C=C/C=C/C=C/C(=O)O)CC[C@]2(CO2)[C@H]1[C@@]1(C)O[C@@H]1CC=C(C)C	3.4%
COc1ccc2nc(NC(=O)Nc3ccccc3)sc2c1	0%
CC(C(=O)O)c1ccc2c(c1)[nH]c1ccc(Cl)cc12 (stereo not given)	0%
O=c1n(CC2CO2)c(=O)n(CC2CO2)n1CC1CO1 (stereo not given)	0%
COc1ccc(CN2CCNCC2)c(OC)c1OC	0%
CCN1CCCC1CNC(=O)c1cc(S(N)(=O)=O)ccc1OC (stereo not given) [SULPIRIDE]	0%
